Recorded IC50, one value per entry.
target: S2R (Homo sapiens); construct: For the S2R assay, Jurkat cell membranes (10–20 μg protein/tube) were incubated at room temperature for 1 h; host or cells: Jurkat cell membranes; experiment: S2R competitive radioligand binding, [3H]-DTG with excess (+)-pentazocine, Jurkat cell membranes; settings: [3H]-DTG displacement with excess (+)-pentazocine, n = 2
Sequence (Q5BJF2 whole entry): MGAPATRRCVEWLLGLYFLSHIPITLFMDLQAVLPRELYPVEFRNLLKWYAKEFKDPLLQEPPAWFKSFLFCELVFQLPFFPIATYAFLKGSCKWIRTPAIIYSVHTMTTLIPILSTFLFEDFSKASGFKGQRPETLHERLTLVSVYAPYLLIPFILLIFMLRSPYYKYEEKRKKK
// return numeric value only (unit: nM, not printed)

Below: 3 compounds and their reported IC50.
{"columns": ["Compound", "Measured metric", "Result value"],
 "data": [
  ["CN(CCCNC(=O)c1ccc(Cl)cc1)Cc1ccccc1 [Compound 1]", "IC50", 255],
  ["CN(CCC(=O)NCc1ccc(C#N)cc1)Cc1ccccc1 [Compound 6]", "IC50", 2400],
  ["CN(CCC(=O)NCc1ccc(Cl)cc1)Cc1ccccc1 [Compound 3]", "IC50", 540]
]}

Could you now look at the following compound, please?
Find the recorded IC50 belonging to CN(CCC(=O)NCc1cccc(Cl)c1)Cc1ccccc1 [Compound 2] and report it.
270

* * *

assay: Microsomal stability; format: in vitro ADME; details: human, liver microsomes, n = 2, read-out: Human liver microsome half-life t1/2
Measured metric: half-life at 10 µM

Find the recorded half-life at 10 µM belonging to CN(CCC(=O)NCc1ccc(C#N)cc1)Cc1ccccc1 and report it.
> 1 h

* * *

biological target: S1R (Homo sapiens); construct: For the S1R assay, Jurkat cell membranes (10–20 μg protein/tube) were incubated at 37 °C for 2 h; host or cells: Jurkat cell membranes; assay: S1R competitive radioligand binding, [3H](+)-pentazocine, Jurkat cell membranes; settings: selectivity ratio S2R/S1R
Sequence (Q99720 whole entry): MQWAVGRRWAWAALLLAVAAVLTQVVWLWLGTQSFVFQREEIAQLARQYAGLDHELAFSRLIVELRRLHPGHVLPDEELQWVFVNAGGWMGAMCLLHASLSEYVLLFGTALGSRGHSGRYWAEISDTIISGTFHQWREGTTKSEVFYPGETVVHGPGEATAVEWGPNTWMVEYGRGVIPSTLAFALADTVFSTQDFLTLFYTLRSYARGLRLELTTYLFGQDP
Measured metric: Ki (S2R)/ Ki (S1R)
Respond numerically, and do not add a unit to the figure.

{"columns": ["Chemical structure", "Result value"],
 "data": [
  ["CN(CCC(=O)NCc1cccc(Cl)c1)Cc1ccccc1", 317],
  ["CN(CCC(=O)NCc1ccc(Cl)cc1)Cc1ccccc1", 241],
  ["CN(CCC(=O)NCc1ccc([N+](=O)[O-])cc1)Cc1ccccc1", 59],
  ["CN(CCC(=O)NCc1ccc(C#N)cc1)Cc1ccccc1", 331]
]}

Find the recorded Ki (S2R)/ Ki (S1R) belonging to CN(CCC(=O)NCc1ccc(Cl)cc1Cl)Cc1ccccc1 and report it.
52

* * *

assay: Microsomal stability; assay type: in vitro ADME; details: human, liver microsomes, as in running text, read-out: Human liver microsome half-life
Measured metric: half-life at 10 µM

Find the recorded half-life at 10 µM belonging to CN(CCC(=O)NCc1ccc(C#N)cc1)Cc1ccccc1 [Compound 6] and report it.
> 1 h

* * *

Parameter 'readout' = IC50; parameter 'system' = UniProtKB Q99720.
// return numeric value only (unit: nM, not printed)

Below: 2 molecules and their reported IC50.
{"columns": ["Chemical structure", "Output unit", "IC50"],
 "data": [
  ["CN(CCC(=O)NCc1ccc(Cl)cc1Cl)Cc1ccccc1", "nM", 4.5],
  ["CN(CCC(=O)NCc1ccc(C#N)cc1)Cc1ccccc1", "nM", 11]
]}

Entry CN(CCC(=O)NCc1cccc(Cl)c1)Cc1ccccc1 , system UniProtKB Q99720: what IC50 was measured?
1.2

Entry CN(CCC(=O)NCc1ccc([N+](=O)[O-])cc1)Cc1ccccc1 , system UniProtKB Q99720: what IC50 was measured?
220

Entry CN(CCC(=O)NCc1ccc(Cl)cc1)Cc1ccccc1 , system UniProtKB Q99720: what IC50 was measured?
3.3

Entry CN(CCCNC(=O)c1ccc(Cl)cc1)Cc1ccccc1 , system UniProtKB Q99720: what IC50 was measured?
6.3

* * *

assay: Bidirectional permeability in Caco-2 cells; format: in vitro ADME; details: human, pH 7.4, 10 µM, n = 2, read-out: Permeability A/B pH7.4/7.4
Measured metric: Papp A→B at 10 µM (×10⁻⁶ cm/s)
// return numeric value only (unit: ×10⁻⁶ cm/s, not printed)

{"columns": ["Chemical structure", "Measured metric", "Output unit", "Result value"],
 "data": [
  ["CN(CCC(=O)NCc1cccc(Cl)c1)Cc1ccccc1", "Papp A→B at 10 µM", "×10⁻⁶ cm/s", 39]
]}

Could you now look at the following compound, please?
Find the recorded Papp A→B at 10 µM belonging to CN(CCC(=O)NCc1ccc(C#N)cc1)Cc1ccccc1 and report it.
49.8

* * *

target: OCT1 (Homo sapiens); assay: Transporter inhibition in overexpressing cell lines; assay type: in vitro ADME; conditions: SLC family, n = 2, read-out: Drug transport inhibition OCT1
Sequence (O15245 whole entry): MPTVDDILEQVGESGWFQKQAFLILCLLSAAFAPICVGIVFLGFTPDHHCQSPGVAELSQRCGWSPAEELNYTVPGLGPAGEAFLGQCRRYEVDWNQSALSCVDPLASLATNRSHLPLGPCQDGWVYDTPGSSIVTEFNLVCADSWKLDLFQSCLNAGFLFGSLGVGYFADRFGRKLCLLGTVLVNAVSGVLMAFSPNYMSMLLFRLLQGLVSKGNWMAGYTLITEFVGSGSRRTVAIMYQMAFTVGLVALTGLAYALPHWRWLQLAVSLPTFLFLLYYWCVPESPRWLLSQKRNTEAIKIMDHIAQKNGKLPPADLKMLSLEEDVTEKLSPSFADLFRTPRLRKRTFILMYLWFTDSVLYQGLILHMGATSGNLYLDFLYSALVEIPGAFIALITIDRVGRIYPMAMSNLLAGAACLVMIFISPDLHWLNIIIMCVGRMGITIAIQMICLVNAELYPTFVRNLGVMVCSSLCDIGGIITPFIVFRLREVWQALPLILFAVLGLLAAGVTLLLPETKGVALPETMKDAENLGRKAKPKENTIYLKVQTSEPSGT
Measured metric: inhibition at 10 µM (%)
// return numeric value only (unit: %, not printed)

{"columns": ["Molecule", "Tested on", "inhibition at 10 µM / %"],
 "data": [
  ["CN(CCC(=O)NCc1ccc(C#N)cc1)Cc1ccccc1 [Compound 6]", "OCT1 (Homo sapiens)", 2.4]
]}

Could you now look at the following molecule, please?
Find the recorded inhibition at 10 µM belonging to CN(CCC(=O)NCc1cccc(Cl)c1)Cc1ccccc1 [Compound 2] and report it.
19.9

* * *

test: Plasma stability in mouse plasma; type: in vitro ADME; conditions: male CD-1 mouse plasma, 37 °C, read-out: Mouse plasma t1/2 (converted)
Recorded half-life at 10 µM, one value per entry.

{"columns": ["Compound", "half-life at 10 µM"],
 "data": [
  ["CN(CCC(=O)NCc1ccc(C#N)cc1)Cc1ccccc1 [Compound 6]", "> 48 h"]
]}

Could you now look at the following compound, please?
Find the recorded half-life at 10 µM belonging to CN(CCC(=O)NCc1cccc(Cl)c1)Cc1ccccc1 [Compound 2] and report it.
35 h

* * *

Recorded inhibition at 10 µM, one value per entry.
system: CYP3A; experiment: CYP inhibition in human liver microsomes; assay type: in vitro ADME; conditions: n = 2, read-out: CYP inhibition 3A
// return numeric value only (unit: %, not printed)

{"columns": ["Compound", "Output unit", "inhibition at 10 µM"],
 "data": [
  ["CN(CCC(=O)NCc1cccc(Cl)c1)Cc1ccccc1 [Compound 2]", "%", 30.9]
]}

Find the recorded inhibition at 10 µM belonging to CN(CCC(=O)NCc1ccc(C#N)cc1)Cc1ccccc1 [Compound 6] and report it.
17.4

* * *

experiment: Solubility, shake-flask method, HPLC-UV/VIS; assay type: physicochemical; conditions: simulated gastric fluid (SGF), thermodynamic from solid; simulated gastric fluid; n = 2; read-out: Solubility SGF
Measured metric: solubility

{"columns": ["Molecule", "solubility"],
 "data": [
  ["CN(CCC(=O)NCc1ccc(C#N)cc1)Cc1ccccc1 [Compound 6]", "178 µM"]
]}

Find the recorded solubility belonging to CN(CCC(=O)NCc1cccc(Cl)c1)Cc1ccccc1 [Compound 2] and report it.
186 µM

* * *

test: Solubility, shake-flask method, HPLC-UV/VIS; type: physicochemical; conditions: simulated intestinal fluid (SIF), fassgf or other biorelevant, thermodynamic from solid; simulated intestinal fluid; n = 2; read-out: Solubility SIF
Measured metric: solubility

Find the recorded solubility belonging to CN(CCC(=O)NCc1ccc(C#N)cc1)Cc1ccccc1 and report it.
190 µM

Find the recorded solubility belonging to CN(CCC(=O)NCc1cccc(Cl)c1)Cc1ccccc1 and report it.
181 µM

* * *

system: CYP1A; experiment: CYP inhibition in human liver microsomes; type: in vitro ADME; details: n = 2, read-out: CYP inhibition 1A
Recorded inhibition at 10 µM, one value per entry.
// return numeric value only (unit: %, not printed)

Find the recorded inhibition at 10 µM belonging to CN(CCC(=O)NCc1cccc(Cl)c1)Cc1ccccc1 [Compound 2] and report it.
23.3

Find the recorded inhibition at 10 µM belonging to CN(CCC(=O)NCc1ccc(C#N)cc1)Cc1ccccc1 [Compound 6] and report it.
13.2

* * *

Recorded inhibition at 10 µM, one value per entry.
molecular target: CYP2B6 (Homo sapiens, UniProt P20813); construct: tissue Eurofins Cerep (assay provider); host or cells: human liver microsomes; assay: CYP inhibition in human liver microsomes; type: in vitro ADME; settings: n = 2, read-out: CYP inhibition 2B6
Sequence (P20813 whole entry): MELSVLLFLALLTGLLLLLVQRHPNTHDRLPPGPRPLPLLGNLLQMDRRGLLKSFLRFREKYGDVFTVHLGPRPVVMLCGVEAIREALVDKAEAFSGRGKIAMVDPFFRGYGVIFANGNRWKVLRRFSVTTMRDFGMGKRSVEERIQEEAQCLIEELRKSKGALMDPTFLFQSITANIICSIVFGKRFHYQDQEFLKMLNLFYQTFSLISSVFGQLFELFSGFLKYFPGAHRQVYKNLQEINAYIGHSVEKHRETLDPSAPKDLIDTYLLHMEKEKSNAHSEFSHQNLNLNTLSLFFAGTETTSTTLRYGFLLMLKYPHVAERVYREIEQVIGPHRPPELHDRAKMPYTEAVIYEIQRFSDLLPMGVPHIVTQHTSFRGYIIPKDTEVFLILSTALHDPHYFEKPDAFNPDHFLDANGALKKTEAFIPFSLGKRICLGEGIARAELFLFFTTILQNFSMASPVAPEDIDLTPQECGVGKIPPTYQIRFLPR
// return numeric value only (unit: %, not printed)

{"columns": ["Chemical structure", "Measured metric", "Result value"],
 "data": [
  ["CN(CCC(=O)NCc1cccc(Cl)c1)Cc1ccccc1", "inhibition at 10 µM", 16.9]
]}

Could you now look at the following molecule, please?
Find the recorded inhibition at 10 µM belonging to CN(CCC(=O)NCc1ccc(C#N)cc1)Cc1ccccc1 and report it.
17.7

* * *

Recorded inhibition at 10 µM, one value per entry.
target: OAT3 (Homo sapiens); assay: Transporter inhibition in overexpressing cell lines; type: in vitro ADME; conditions: SLC family, n = 2, read-out: Drug transport inhibition OAT3
Sequence (Q8TCC7 whole entry): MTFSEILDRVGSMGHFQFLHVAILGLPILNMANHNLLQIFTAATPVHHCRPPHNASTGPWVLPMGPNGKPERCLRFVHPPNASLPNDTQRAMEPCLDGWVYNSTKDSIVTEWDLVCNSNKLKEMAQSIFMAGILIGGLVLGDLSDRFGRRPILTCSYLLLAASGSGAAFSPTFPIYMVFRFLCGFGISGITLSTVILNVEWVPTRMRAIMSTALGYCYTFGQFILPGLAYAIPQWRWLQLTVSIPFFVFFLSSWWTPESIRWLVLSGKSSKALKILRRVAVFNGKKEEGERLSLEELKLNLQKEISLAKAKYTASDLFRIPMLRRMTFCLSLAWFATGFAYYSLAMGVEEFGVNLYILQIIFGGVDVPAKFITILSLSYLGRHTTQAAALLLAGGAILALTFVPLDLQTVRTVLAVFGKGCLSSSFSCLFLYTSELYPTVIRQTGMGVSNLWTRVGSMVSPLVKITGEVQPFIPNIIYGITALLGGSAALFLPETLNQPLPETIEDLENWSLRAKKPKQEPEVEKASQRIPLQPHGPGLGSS
// return numeric value only (unit: %, not printed)

{"columns": ["Compound", "Result value"],
 "data": [
  ["CN(CCC(=O)NCc1cccc(Cl)c1)Cc1ccccc1 [Compound 2]", 33.3]
]}

Could you now look at the following compound, please?
Find the recorded inhibition at 10 µM belonging to CN(CCC(=O)NCc1ccc(C#N)cc1)Cc1ccccc1 [Compound 6] and report it.
27.8
